Hey, just so you know, these numbers are from patent US9546173B2.

testedTarget: activated ERK2 (Homo sapiens (Human), UniProt P28482)
Sequence (P28482 whole entry): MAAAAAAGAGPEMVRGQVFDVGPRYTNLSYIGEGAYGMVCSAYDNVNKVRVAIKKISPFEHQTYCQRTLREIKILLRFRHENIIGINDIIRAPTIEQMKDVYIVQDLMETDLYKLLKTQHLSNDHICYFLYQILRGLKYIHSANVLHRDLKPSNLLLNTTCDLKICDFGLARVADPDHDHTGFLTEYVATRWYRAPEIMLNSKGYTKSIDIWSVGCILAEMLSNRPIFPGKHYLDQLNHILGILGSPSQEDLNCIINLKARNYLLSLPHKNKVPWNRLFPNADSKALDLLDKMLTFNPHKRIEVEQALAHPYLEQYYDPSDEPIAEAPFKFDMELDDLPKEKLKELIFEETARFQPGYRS
experimentalDetails: Activated ERK2 kinase assay (AlphaScreen, ERKtide peptide phosphorylation)
Type: biochemical
assaySetup: comparative example text; read-out: IC50 on ERK2
measuredQuantity: IC50 (nM)
Give the value, in units of nM, as a plain number.

Query: // fetch IC50 for C[C@@H](NC(=O)N1Cc2cnc(NC3CCOCC3)nc2C1)c1ccccc1 [Comparative Example, reference compound] ; system: activated ERK2 (Homo sapiens (Human), UniProt P28482)
Response: 360

###

testedTarget: activated ERK2 (Homo sapiens (Human))
experimentalDetails: Activated ERK2 kinase assay (AlphaScreen, ERKtide peptide phosphorylation)
Type: biochemical
assaySetup: […] ERK2, 200 nM ERKtide peptide, 35 μM ATP, 30 min preincubation; read-out: ERK2 IC50
pIC50: −log10 of the molar value.
Each entry gets -1 if its pIC50 stays under 7, and 1 if its pIC50 is 7 or above.

Worked examples follow.
{"molecule": "CC1(C)c2cnc(NC3CCOCC3)nc2CN1C(=O)NCc1ccc([S+]([O-])C(F)(F)F)cc1 (centres unmarked)", "class": 1}
{"molecule": "CC(=O)N1CC2C(C1)C2Nc1ncc2c(n1)CN(C(=O)N[C@H](CO)c1ccccc1)C2(C)C (some centres unmarked)", "class": -1}
{"molecule": "CC1(C)c2cnc(NC3CCCCC3)nc2CN1C(=O)N[C@H](CO)c1ccccc1", "class": 1}
{"molecule": "CC1(C)c2cnc(NC3CCOCC3)nc2CN1C(=O)NCc1cccc(S(C)(=O)=O)c1", "class": 1}

With those in mind, consider the next molecule.
Query: Please tell me: is the molecule `CNC(=O)N1Cc2nc(NC3CCOCC3)ncc2C1(C)C` at or over 7 in terms of pIC50?
Response: -1

###

testedTarget: activated ERK2 (Homo sapiens (Human))
experimentalDetails: Activated ERK2 kinase assay (AlphaScreen, ERKtide peptide phosphorylation)
Format: biochemical
assaySetup: […] ERK2, 200 nM ERKtide peptide, 35 μM ATP, 30 min preincubation; read-out: ERK2 IC50
measuredQuantity: IC50 (nM)
Give the value, in units of nM, as a plain number.

Query: Please list IC50 recorded for the compound `CC1(C)c2cnc(NC3CCOCC3)nc2CN1C(=O)N[C@H](CN)c1ccccc1`
Response: 14

###

testedTarget: activated ERK2 (Homo sapiens (Human), UniProt P28482)
experimentalDetails: Activated ERK2 kinase assay (AlphaScreen, ERKtide peptide phosphorylation)
Assay type: biochemical
assaySetup: […] ERK2, 200 nM ERKtide peptide, 35 μM ATP, 30 min preincubation; read-out: ERK2 IC50
measuredQuantity: pIC50
Quick note: pIC50 values are minus log10 of concentrations in mol/L.

Query: // fetch pIC50 for `CN(C)[C@@H]1CCCC[C@H]1NC(=O)N1Cc2nc(Nc3ccccc3)ncc2C1(C)C` ; system: activated ERK2 (Homo sapiens (Human), UniProt P28482)
Response: 3.90

Query: // fetch pIC50 for `CC(=O)N1CC[C@H](Nc2ncc3c(n2)CN(C(=O)N[C@H](CO)c2ccccc2)C3(C)C)C1` ; system: activated ERK2 (Homo sapiens (Human), UniProt P28482)
Response: 5.45

Query: // fetch pIC50 for `CC1(C)c2cnc(NC3CCOCC3)nc2CN1C(=O)NCc1cccnc1` ; system: activated ERK2 (Homo sapiens (Human), UniProt P28482)
Response: 6.05

Query: // fetch pIC50 for `CC1(C)c2cnc(NC3CCOCC3)nc2CN1C(=O)N[C@H]1c2ccccc2C[C@H]1O` ; system: activated ERK2 (Homo sapiens (Human), UniProt P28482)
Response: 6.29

Query: // fetch pIC50 for `CC1(C)c2cnc(NC3CCOCC3)nc2CN1C(=O)NCc1cccc(Cl)c1` ; system: activated ERK2 (Homo sapiens (Human), UniProt P28482)
Response: 8.22

###

Property: pIC50; scope: individual compounds
testedTarget: activated ERK2 (Homo sapiens (Human), UniProt P28482)
experimentalDetails: Activated ERK2 kinase assay (AlphaScreen, ERKtide peptide phosphorylation)
Format: biochemical
assaySetup: […] ERK2, 200 nM ERKtide peptide, 35 μM ATP, 30 min preincubation; read-out: ERK2 IC50
Quick note: pIC50 values are minus log10 of concentrations in mol/L.

Below: 5 compounds and their reported pIC50.
{"compound": "C[C@@H](NC(=O)N1Cc2nc(NC3CCOCC3)ncc2C1C1CC1)c1cccc(Cl)c1 (some centres unmarked) [compound 172]", "readoutValue": 6.84}
{"compound": "CC1(C)c2cnc(N[C@H]3C[C@@H](O)C3)nc2CN1C(=O)N[C@H](CO)c1ccccc1 [compound 55]", "readoutValue": 6.17}
{"compound": "O=C(Nc1cnn(Cc2ccccc2F)c1)N1Cc2nc(NC3CCOCC3)ncc2C12CCC2 [compound 99]", "readoutValue": 7.92}
{"compound": "CC[C@@]1(C)c2cnc(NC3CCOCC3)nc2CN1C(=O)N[C@H](CO)c1ccccc1 [compound 79]", "readoutValue": 6.01}
{"compound": "C[C@@H](NC(=O)N1Cc2nc(NC3CCOCC3)ncc2C1(C)C)c1cccc(Cl)c1 [compound 22]", "readoutValue": 8.70}

Query: // fetch pIC50 for CC(Nc1ncc2c(n1)CN(C(=O)N[C@H](CO)c1ccccc1)C2(C)C)C1CCCO1 (some centres unmarked) [compound 73] ; system: activated ERK2 (Homo sapiens (Human), UniProt P28482)
Response: 6.50

Query: // fetch pIC50 for CC1(C)c2cnc(NC3CCOCC3)nc2CN1C(=O)NC1CCOCC1 [compound 18] ; system: activated ERK2 (Homo sapiens (Human), UniProt P28482)
Response: 5.62

Query: // fetch pIC50 for CC1(C)c2cnc(NC3CCOCC3)nc2CN1C(=O)N[C@@H]1CCCNC1 [compound 7] ; system: activated ERK2 (Homo sapiens (Human), UniProt P28482)
Response: 4.81

Query: // fetch pIC50 for CC1(C)c2cnc(Nc3ccccc3)nc2CN1C(=O)NCC1CCN(Cc2ccccc2)C1 (centres unmarked) [compound 159] ; system: activated ERK2 (Homo sapiens (Human), UniProt P28482)
Response: 4.71

Query: // fetch pIC50 for CC1(CO)c2cnc(NC3CCOCC3)nc2CN1C(=O)NCc1ccccc1 (centres unmarked) [compound 90] ; system: activated ERK2 (Homo sapiens (Human), UniProt P28482)
Response: 5.40

Query: // fetch pIC50 for CC1(C)c2cnc(NC3CC3)nc2CN1C(=O)N[C@H](CO)c1ccccc1 [compound 31] ; system: activated ERK2 (Homo sapiens (Human), UniProt P28482)
Response: 6.50

Query: // fetch pIC50 for CCCS(=O)(=O)c1cccc(CNC(=O)N2Cc3nc(NC4CCOCC4)ncc3C2(C)C)c1 [compound 110] ; system: activated ERK2 (Homo sapiens (Human), UniProt P28482)
Response: 7.41

Query: // fetch pIC50 for CC1(C)c2cnc(NC3CCOCC3)nc2CN1C(=O)N[C@@H]1CCCN(Cc2ccccc2F)C1 [compound 8] ; system: activated ERK2 (Homo sapiens (Human), UniProt P28482)
Response: 7.09

###

testedTarget: activated ERK2 (Homo sapiens (Human))
experimentalDetails: Activated ERK2 kinase assay (AlphaScreen, ERKtide peptide phosphorylation)
Format: biochemical
assaySetup: […] ERK2, 200 nM ERKtide peptide, 35 μM ATP, 30 min preincubation; read-out: ERK2 IC50
Method: Production of Activated ERK2 Protein: Activated ERK2 protein was generated in insect cells by co-expression with a constitutively active form of MEK1. […] A 16-point, half-log dilution series of compounds at 41× final concentration was used for generating IC50 curves. […] Terminated reactions were read, after overnight incubation in the dark, on an EnVision Multilabel Plate Reader (PerkinElmer, Waltham, Mass.), with excitation and emission wavelengths set to 680 nm and 570 nm, respectively. […]
Property: pIC50; scope: individual molecules
Quick note: pIC50 values are minus log10 of concentrations in mol/L.

{"molecule": "CC1(C)c2cnc(NC3CCOCC3)nc2CN1C(=O)NCc1ccc(Cl)cc1", "readoutValue": 8.00}
{"molecule": "CC1(C)c2cnc(NC3CCOCC3)nc2CN1C(=O)NCc1cc(Cl)cc(S(C)(=O)=O)c1", "readoutValue": 8.22}
{"molecule": "CC1(C)c2cnc(NC3CCOCC3)nc2CN1C(=O)NCC1CCCOC1 (centres unmarked)", "readoutValue": 6.07}
{"molecule": "CN(Cc1ccccc1)C(=O)N1Cc2nc(NC3CCOCC3)ncc2C1(C)C", "readoutValue": 6.69}
{"molecule": "C[C@H](NC(=O)N1Cc2nc(NC3CCOCC3)ncc2C1(C)C)c1ccccc1", "readoutValue": 6.10}

Query: // fetch pIC50 for `Cc1cc(Nc2ncc3c(n2)CN(C(=O)N[C@H](CO)c2ccccc2)C3(C)C)ccn1` ; system: activated ERK2 (Homo sapiens (Human))
Response: 6.20

Query: // fetch pIC50 for `CC1(C)c2cnc(NC3CCOCC3)nc2CN1C(=O)NCc1ccccc1` ; system: activated ERK2 (Homo sapiens (Human))
Response: 7.51

Query: // fetch pIC50 for `CC1(C)c2cnc(NC3CCOCC3)nc2CN1C(=O)NCc1ccc(S(C)(=O)=O)cc1` ; system: activated ERK2 (Homo sapiens (Human))
Response: 7.19

Query: // fetch pIC50 for `CC1(C)c2cnc(NC3CCOCC3)nc2CN1C(=O)NCc1cc(F)cc(F)c1` ; system: activated ERK2 (Homo sapiens (Human))
Response: 7.68

Query: // fetch pIC50 for `Cc1ccc(CNC(=O)N2Cc3nc(NC4CCOCC4)ncc3C2(C)C)cc1` ; system: activated ERK2 (Homo sapiens (Human))
Response: 7.68

Query: // fetch pIC50 for `CC1(C)c2cnc(NC3CCOCC3)nc2CN1C(=O)N[C@H]1CCCN(Cc2ccccc2F)C1` ; system: activated ERK2 (Homo sapiens (Human))
Response: 4.81

Query: // fetch pIC50 for `CC1(C)c2cnc(NC3CCOCC3)nc2CN1C(=O)NCc1cc[nH]c(=O)c1` ; system: activated ERK2 (Homo sapiens (Human))
Response: 5.26
